Ref: PubChem BioAssay AID248

Would you mind telling me the reported T/C of each entry?
# System: L1210 leukemia ip in BDF1 mice, survival T/C
# experiment notes: NCI In Vivo Anticancer Drug Screen. Data for tumor model L1210 Leukemia (intraperitoneal) in B6D2F1 (BDF1) mice
# particulars: endpoint: mean survival time; dose: 400.0 mg/kg/injection; schedule: Q04DX003 (ip); vehicle: saline; higher = longer survival
Toxic doses and inconclusive results are not listed. Square brackets hold non-standard residues; d marks the D form. Peptide text beside a SMILES is read from it. ξ: configuration not given here. ξF = NC(Cc1ccccc1)C(=O)O

Record T/C per entry; entries follow.
1. O=C(OCCOCCOCCOCCOCCOCCOCCOCCOCCOCCOCCOCCOCCOCCOCCOCCOCCOCCOCCOCCOCCOCCOC(=O)N1CC1)N1CC1
2. CC(C)(CO)NCc1ccc(Cl)c(Cl)c1
3. NC(=O)N1C(=O)C2C3C=CC(O3)C2C1=O (configuration not stated)

Output line:
["108 % of control", "97 % of control", "101 % of control"]

Record T/C per entry; entries follow.
1. C=CC(C)(O)CCC1C(=C)C(O)CC2C(C)(C)CCCC12C (configuration not stated)
2. C/C(=N/O)c1c[n+]([O-])ccn1
3. Cc1c(NCO)c(=O)n(-c2ccccc2)n1C
4. CCCCCCCCOP(OCCCCCCCC)OCCCCCCCC
5. CC(C)=C(Br)c1c(C)cc(C)c(Nc2ccc([N+](=O)[O-])cc2)c1C

Output line:
1. 90 % of control
2. 102 % of control
3. 112 % of control
4. 104 % of control
5. 91 % of control

Record T/C per entry; entries follow.
1. O=[N+]([O-])c1cccc(-c2nn[nH]n2)c1
2. O=c1cc(CN2CCN(CCO)CC2)[nH]c(=O)[nH]1
3. O/N=c1/cc(-c2cccs2)ss1
4. CCO/N=C(/N)N=C(N)N
5. Cc1cccc(C)c1NC(=O)N(CCO)C1CCCCC1
6. O=C(Nc1cccs1)c1ccccc1
7. NCC(=O)NCC(=O)NC(Cc1ccccc1)C(=O)O (stereo not drawn) (H-Gly-Gly-[ξF]-OH)

Output line:
1: 96 % of control; 2: 95 % of control; 3: 95 % of control; 4: 91 % of control; 5: 104 % of control; 6: 95 % of control; 7: 101 % of control

Record T/C per entry; entries follow.
1. CC(=O)N1CCOCC1
2. COc1cc2ccc(CC(=O)NCc3ccccc3)cc2cc1OC
3. COC(=O)CC[N+]12CN3CN(CN(C3)C1)C2

Output line:
1: 102 % of control; 2: 101 % of control; 3: 105 % of control

Record T/C per entry; entries follow.
1. COc1ccc(C(C)=O)c(OC)c1C
2. C/C(CCC(=O)O)=N/O
3. CC(C)(C)c1cccc(C(C)(C)C)c1O
4. CNC(C)(C)CO
5. O=C1CC=C(Nc2ccc(Br)cc2)C(=O)O1

Output line:
1: 98 % of control; 2: 101 % of control; 3: 90 % of control; 4: 104 % of control; 5: 108 % of control

Record T/C per entry; entries follow.
1. CCN(CC)CCNC(C)=O
2. CC(C)(C)C(=O)CC(=O)C(C)(C)C
3. O=C(CCC(=O)Oc1ccc(S(=O)(=O)F)cc1)Oc1ccc(S(=O)(=O)F)cc1

Output line:
1: 97 % of control; 2: 95 % of control; 3: 103 % of control

Record T/C per entry; entries follow.
1. Nc1ncnc2c1nc(Br)n2C1OC(CO)C(O)C1O (configuration not stated)
2. CC(CO)NC(=O)c1ccc(N)cc1 (configuration not stated)
3. CCOC(=O)CC(C)(N)NC(N)=O (configuration not stated)
4. Cc1nc2c(Cl)cc(Cl)cc2s1
5. CCOC(=O)C(OCC)c1ccccc1 (configuration not stated)
6. Nn1cn[nH]c1=S

Output line:
["101 % of control", "102 % of control", "106 % of control", "92 % of control", "89 % of control", "98 % of control"]

* * *

# Test system: L1210 leukemia ip in BDF1 mice, survival T/C
# experiment notes: NCI In Vivo Anticancer Drug Screen. Data for tumor model L1210 Leukemia (intraperitoneal) in B6D2F1 (BDF1) mice
# particulars: endpoint: mean survival time; dose: 5.0 mg/kg/injection; schedule: Q01DX001 (ip); vehicle: saline; higher = longer survival
Inconclusive results and toxic doses are left out.
Would you mind telling me the reported T/C of each entry?

Illustrative cases are given below, each with its answer.
CC1(C)N=C(N)N=C(N)N1c1ccc(Cl)c(Cl)c1; 105 % of control
[O-]/[N+](=C\c1ccc(/C=[N+](\[O-])c2ccccc2)cc1)c1ccccc1; 97 % of control
Nc1ccc(Nc2ccc(N)cc2)cc1; 101 % of control
Cc1ccc(C[P+](c2ccccc2)(c2ccccc2)c2ccccc2)cc1; 102 % of control
COc1ccc2nc3ccccc3c(NCCNCCO)c2c1; 97 % of control

Proceeding to the next compound to report its T/C.
Input line: # get_value(readout= T/C, system= L1210 leukemia ip in BDF1 mice, survival T/C) for NC(=O)c1[nH]nc(C2OC(CO)C(O)C2O)c1O (stereo unspecified)
Output line: 109 % of control

* * *

# Test system: L1210 leukemia ip in BDF1 mice, survival T/C
# experiment notes: NCI In Vivo Anticancer Drug Screen. Data for tumor model L1210 Leukemia (intraperitoneal) in B6D2F1 (BDF1) mice
# particulars: endpoint: mean survival time; dose: 100.0 mg/kg/injection; schedule: Q04DX003 (ip); vehicle: Klucel (hydroxypropylcellulose) (HPC); higher = longer survival
Toxic doses and inconclusive results are not listed.
Would you mind telling me the reported T/C of each entry?

O=C(NCCBr)Nc1cccc2c1Cc1ccccc1-2; 95 % of control
NC(=O)C(Cc1ccc(O)cc1)NC(=O)c1ccccc1 (configuration not stated); 105 % of control
CCCCCCCCCCCCNC(=O)Nc1ccc(C)cc1C; 95 % of control
CCOC(=O)NC(C)(C)CC(C)(C)C; 108 % of control

Record T/C per entry; entries follow.
1. Clc1ccc(NC2=NCCCS2)c2ccccc12
2. O=C(NCCCl)Nc1ccccn1
3. CCCCCCCCCCCCCCCCOc1ccc(C(SC)=[N+]2CCCCC2)cc1OC
4. c1ccc(-c2ccc([Si](c3ccccc3)(c3ccccc3)c3ccccc3)cc2)cc1
5. CCOC(=O)CCC(NC(=O)c1ccc2c(c1)CCCN2C=O)C(=O)OCC (configuration not stated)
6. O=C1C=CC(=O)N1Nc1ccccc1

Output line:
1. 97 % of control
2. 90 % of control
3. 98 % of control
4. 105 % of control
5. 104 % of control
6. 100 % of control

* * *

# Tested on: L1210 leukemia ip in BDF1 mice, survival T/C
# experiment notes: NCI In Vivo Anticancer Drug Screen. Data for tumor model L1210 Leukemia (intraperitoneal) in B6D2F1 (BDF1) mice
# particulars: endpoint: mean survival time; dose: 400.0 mg/kg/injection; schedule: Q04DX003 (ip); vehicle: other; higher = longer survival
Toxic doses and inconclusive results are not listed.
recorded endpoint: T/C

O=C(OC1C=CCC=C1)c1cc([N+](=O)[O-])cc([N+](=O)[O-])c1; 94 % of control

Record T/C per entry; entries follow.
1. CNC(=O)OCCOC(=O)NC
2. Cc1nnc(NC(=O)CCl)s1
3. C=C(Cl)CN(CCCC(=O)O)c1ccccc1
4. Cc1ccc(S(=O)(=O)NN=C2CCC(C(C)(C)C)CC2)cc1 (configuration not stated)
5. OC(c1ccccc1)C(c1ccccc1)C1CO1 (configuration not stated)

Output line:
1: 111 % of control; 2: 101 % of control; 3: 108 % of control; 4: 96 % of control; 5: 94 % of control

Input line: # get_value(readout= T/C, system= L1210 leukemia ip in BDF1 mice, survival T/C) for CC(C)CC(NC(=O)CNC(=O)OCc1ccccc1)C(=O)OCc1ccccc1 (configuration not stated)
Output line: 102 % of control

* * *

Would you mind telling me the reported T/C of each entry?
# System: L1210 leukemia ip in BDF1 mice, survival T/C
# experiment notes: NCI In Vivo Anticancer Drug Screen. Data for tumor model L1210 Leukemia (intraperitoneal) in B6D2F1 (BDF1) mice
# particulars: endpoint: mean survival time; dose: 200.0 mg/kg/injection; schedule: Q04DX003 (ip); vehicle: saline with Tween-80; higher = longer survival
Toxic doses and inconclusive results are not listed.

CC1CCCCC12OCCO2 (configuration not stated); 93 % of control
CCCCN(CCCC)P(=S)(OCC)OCC; 102 % of control
CC(C)CC(=O)Nc1ccc(S(=O)(=O)NCC(C)(C)O)cc1; 98 % of control
CC1=C2C(=O)c3ccccc3C2=C(C)S(=O)(=O)O1; 106 % of control
OCc1ccc[n+](CCc2c[nH]c3ccccc23)c1; 103 % of control
CC(=O)Cn1c(=O)oc2ccccc2c1=O; 102 % of control
NC(=S)N/N=C/c1ccc([N+](=O)[O-])s1; 100 % of control
CCOc1ccc(OCC)c(NC(=O)c2ccccc2)c1; 92 % of control
O=C1c2ccccc2C(=O)c2c(Sc3ccccc3)cccc21; 98 % of control
O=c1cc(O)ccn1CCc1cccs1; 98 % of control

Record T/C per entry; entries follow.
1. COc1cc(NS(=O)(=O)c2ccc(C)cc2)c2c(c1N)C(=O)c1ccccc1C2=O
2. CC12NC(=O)NC1(C)NC(=O)N2 (configuration not stated)
3. O=C(Nc1ccc(Cl)cc1[N+](=O)[O-])Oc1ccc(-c2ccccc2)cc1

Output line:
1: 98 % of control; 2: 102 % of control; 3: 107 % of control

Record T/C per entry; entries follow.
1. CCNC(C)(C)C(S)c1ccc(Cl)s1 (configuration not stated)
2. CCCCCCCCCC(O)CCCC (configuration not stated)
3. N/N=C1/CCN2CCCc3cccc1c32
4. CC(=O)C(c1ccccc1)(c1ccccc1)c1ccccc1

Output line:
["94 % of control", "98 % of control", "96 % of control", "93 % of control"]
